# Experimental Target: Rap guanine nucleotide exchange factor 3 (Homo sapiens) (UniProt O95398)
# Sequence (O95398 whole entry, looked up): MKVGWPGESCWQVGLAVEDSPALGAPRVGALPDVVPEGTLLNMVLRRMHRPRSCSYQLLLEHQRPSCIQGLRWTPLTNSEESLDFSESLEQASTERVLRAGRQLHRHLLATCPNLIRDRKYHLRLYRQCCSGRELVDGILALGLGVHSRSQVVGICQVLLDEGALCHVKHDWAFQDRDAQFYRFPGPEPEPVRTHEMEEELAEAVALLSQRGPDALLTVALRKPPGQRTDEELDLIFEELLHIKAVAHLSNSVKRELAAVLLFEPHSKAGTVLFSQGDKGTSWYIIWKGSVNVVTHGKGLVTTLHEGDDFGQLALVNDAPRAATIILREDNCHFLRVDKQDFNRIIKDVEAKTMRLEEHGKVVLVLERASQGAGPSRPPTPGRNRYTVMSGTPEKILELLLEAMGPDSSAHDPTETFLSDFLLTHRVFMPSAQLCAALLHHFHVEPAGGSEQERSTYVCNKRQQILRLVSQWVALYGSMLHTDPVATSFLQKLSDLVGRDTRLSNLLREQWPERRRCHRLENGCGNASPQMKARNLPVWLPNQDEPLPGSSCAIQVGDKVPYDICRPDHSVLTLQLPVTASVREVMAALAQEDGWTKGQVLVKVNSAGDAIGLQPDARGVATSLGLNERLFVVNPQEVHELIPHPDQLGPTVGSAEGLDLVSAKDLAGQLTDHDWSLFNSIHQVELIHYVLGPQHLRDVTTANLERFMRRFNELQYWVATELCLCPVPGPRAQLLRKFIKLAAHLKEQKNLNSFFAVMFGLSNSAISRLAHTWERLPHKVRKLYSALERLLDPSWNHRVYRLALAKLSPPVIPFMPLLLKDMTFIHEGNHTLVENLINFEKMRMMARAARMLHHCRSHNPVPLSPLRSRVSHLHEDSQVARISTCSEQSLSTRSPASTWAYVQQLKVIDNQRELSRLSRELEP
# Measurement Description: Counterscreen qHTS for antagonist of cAMP-regulated guanine nucleotide exchange factor 3 (EPAC1) (AID 1645888);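 note: fluorescence loss as bound BODIPY-GDP is released from Rap1B; % of control where 0% means no effect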
# Conditions: Rap1B-BODIPY-GDP nucleotide exchange, fluorescence; series mostly up to 154 µM
Records with an inconclusive call do not appear. The source made the active and inactive calls. Calls come from the whole dose curve; as a rule, active = well fitted inhibition curve with a large enough effect; inconclusive = small, poorly fitted or top-dose-only effect; inactive = no such curve, though single readings can be large or run the other way.
Experimental Readout: activity change, negative = inhibition

Examples with answers:
Compound: COc1ccc(NC(=O)COC(=O)c2ccc(S(=O)(=O)N(C)c3ccccc3OC)cc2)cc1OC
Experimental Readout: activity change, negative = inhibition
Result: inactive
//
Compound: O=C(O)c1cc(Cl)ccc1-c1ccc(/C=C/c2cc(C(F)(F)F)[nH]c(=O)n2)o1
Experimental Readout: activity change, negative = inhibition
Result: 144% [at 30.8 µM] (inactive)
//
Compound: O=C(Nc1cc(C(F)(F)F)ccc1Cl)c1nc2ccccc2nc1N1CCCCC1
Experimental Readout: activity change, negative = inhibition
Result: inactive
//
Compound: COc1cccc(/C(O)=C/c2nc3ccc(C(=O)NCCc4ccc(Cl)cc4)cc3[nH]c2=O)c1
Experimental Readout: activity change, negative = inhibition
Result: inactive
//
Compound: CCOC(=O)C1CCCCN1Cc1cccc(Oc2ccccc2)c1 (stereo not given)
Experimental Readout: activity change, negative = inhibition
Result: -24.9% [at 30.8 µM] (inactive)

Req: Give activity change, negative = inhibition for this entry on Rap guanine nucleotide exchange factor 3 (Homo sapiens) (UniProt O95398): COCCCNC(=O)C(C#N)c1nc2ccccc2nc1N1CCN(Cc2ccccc2)CC1 (stereo not given)
Resp: inactive

Req: Give activity change, negative = inhibition for this entry on Rap guanine nucleotide exchange factor 3 (Homo sapiens) (UniProt O95398): COc1cc(C2CC(=O)Oc3cc(C)c(Br)c(C)c32)cc(OC)c1OC (stereo not given)
Resp: -6.95% [at 30.8 µM] (inactive)

Req: Give activity change, negative = inhibition for this entry on Rap guanine nucleotide exchange factor 3 (Homo sapiens) (UniProt O95398): O=C(COC(=O)C1(c2ccc(Cl)cc2)CCCC1)NCc1ccco1
Resp: inactive

Req: Give activity change, negative = inhibition for this entry on Rap guanine nucleotide exchange factor 3 (Homo sapiens) (UniProt O95398): O=C(CCC(=O)N1CCSc2ccccc21)NCc1cccc(Br)c1
Resp: 0.997% [at 30.8 µM] (inactive)

Req: Give activity change, negative = inhibition for this entry on Rap guanine nucleotide exchange factor 3 (Homo sapiens) (UniProt O95398): COc1ccc(C=C(C(C)=O)C(=O)c2ccccc2)cc1
Resp: inactive
